Attribution: patent US20100261620A1

# Kd per entry
biological target: IL-13 (Homo sapiens (Human), UniProt P35225 35-146, limits assumed); test: Biacore
Sequence (P35225 35-146 limits assumed): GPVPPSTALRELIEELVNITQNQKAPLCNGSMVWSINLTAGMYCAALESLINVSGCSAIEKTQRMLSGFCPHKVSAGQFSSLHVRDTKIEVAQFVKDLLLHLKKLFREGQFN
Supply the numeric figure in pM, leaving out any unit text.

INSERT INTO results (binder, measured_endpoint, value_observed) VALUES
  ('M463 (antibody, V domains shown, anti-IL-13, human IgG1) VH: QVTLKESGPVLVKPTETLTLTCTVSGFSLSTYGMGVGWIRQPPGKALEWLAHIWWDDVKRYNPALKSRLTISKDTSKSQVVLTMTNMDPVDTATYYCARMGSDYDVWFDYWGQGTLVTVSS VL: EIVLTQSPATLSLSPGERATLSCRASKSISKYLAWYQQKPGQAPRLLIYSGSTLQSGIPARFSGSGSGTDFTLTISSLEPEDFAVYYCQQQDLGPYTFGQGTKLEIK', 'Kd', 37),
  ('M482 (antibody, V domains shown, anti-IL-13, human IgG1; printed changes are the same as for M470) VH: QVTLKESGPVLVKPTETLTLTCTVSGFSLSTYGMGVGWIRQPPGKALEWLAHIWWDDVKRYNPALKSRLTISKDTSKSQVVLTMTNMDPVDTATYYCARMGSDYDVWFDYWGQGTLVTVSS VL: EIVLTQSPATLSLSPGERATLSCRASKSISKYLAWYQQKPGQAPRLLIYSGSTLQSGIPARFSGSGSGTDFTLTISSLEPEDFAVYYCQQHLDSPYTFGQGTKLEIK', 'Kd', 296);

Consider the binder M470 (antibody, V domains shown, anti-IL-13, human IgG1) VH: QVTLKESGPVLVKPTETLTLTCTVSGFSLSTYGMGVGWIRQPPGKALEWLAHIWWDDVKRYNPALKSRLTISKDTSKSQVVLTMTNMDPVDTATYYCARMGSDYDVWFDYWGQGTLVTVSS VL: EIVLTQSPATLSLSPGERATLSCRASKSISKYLAWYQQKPGQAPRLLIYSGSTLQSGIPARFSGSGSGTDFTLTISSLEPEDFAVYYCQQHLDSPYTFGQGTKLEIK and give its measured Kd. 239

Consider the binder M446 (antibody, V domains shown, anti-IL-13, human IgG1) VH: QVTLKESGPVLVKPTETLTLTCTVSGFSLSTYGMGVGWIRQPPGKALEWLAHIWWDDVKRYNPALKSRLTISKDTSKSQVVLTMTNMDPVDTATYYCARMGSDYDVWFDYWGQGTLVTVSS VL: EIVLTQSPATLSLSPGERATLSCRASKSISKYLAWYQQKPGQAPRLLIYSGSTLQSGIPARFSGSGSGTDFTLTISSLEPEDFAVYYCQQHVGGPYTFGQGTKLEIK and give its measured Kd. 345

Consider the binder M479 (antibody, V domains shown, anti-IL-13, human IgG1) VH: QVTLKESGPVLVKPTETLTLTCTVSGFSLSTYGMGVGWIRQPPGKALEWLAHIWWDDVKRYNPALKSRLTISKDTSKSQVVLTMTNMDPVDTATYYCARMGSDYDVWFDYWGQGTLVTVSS VL: EIVLTQSPATLSLSPGERATLSCRASKSISKYLAWYQQKPGQAPRLLIYSGSTLQSGIPARFSGSGSGTDFTLTISSLEPEDFAVYYCQQPLDTPYTFGQGTKLEIK and give its measured Kd. 192
